Reported Cmax is given for each of the following compounds.
Assay: Cmax in mouse at 10 mg/kg,po administration
Format: ADME, organism-based
Parameters: dose 10 mg/kg, route po
Settings: in vivo

[
  {
    "compound": "CO[C@@H]1[C@@H](n2cc(-c3ccc(Br)c(F)c3F)nn2)[C@@H](O)[C@@H](CO)O[C@H]1c1nc(C)nn1-c1ccc2ncsc2c1",
    "reading unit": "nM",
    "Cmax": 1800
  },
  {
    "compound": "CO[C@H]1C(C(=O)N(C)c2ccc3ncsc3c2)O[C@H](CO)[C@H](O)[C@@H]1n1cc(-c2ccc(Cl)c(F)c2F)nn1 (single isomer, unassigned)",
    "reading unit": "nM",
    "Cmax": 3100
  },
  {
    "compound": "Cc1nc([C@@H]2O[C@H](CO)[C@H](O)[C@H](n3cc(-c4ccc(Br)c(F)c4F)nn3)[C@H]2O)n(-c2ccc3ncsc3c2)n1",
    "reading unit": "nM",
    "Cmax": 600
  },
  {
    "compound": "CO[C@@H]1[C@@H](n2cc(-c3ccc(Cl)c(F)c3F)nn2)[C@@H](O)[C@@H](CO)O[C@H]1c1nc(C)nn1-c1ccc2ncsc2c1",
    "reading unit": "nM",
    "Cmax": 4300
  }
]

====

Assay: Clearance in mouse at 10 mg/kg,po administration
Assay type: ADME, organism-based
Conditions: in vivo
Reported CL/F is given for each of the following molecules.

[
  {
    "molecule": "CO[C@@H]1[C@@H](n2cc(-c3ccc(Cl)c(F)c3F)nn2)[C@@H](O)[C@@H](CO)O[C@H]1c1nc(C)nn1-c1ccc2ncsc2c1",
    "CL/F, mL/min/kg": 8
  },
  {
    "molecule": "CO[C@H]1C(C(=O)N(C)c2ccc3ncsc3c2)O[C@H](CO)[C@H](O)[C@@H]1n1cc(-c2ccc(Cl)c(F)c2F)nn1 (single isomer, unassigned)",
    "CL/F, mL/min/kg": 12
  }
]

====

Experiment: Permeability of the compound at pH 7.4 incubated for 4 hrs by PAMPA based SpectraMax UV-plate reader analysis
Format: ADME
Conditions: read-out: permeability
Each record is given yes if its reported Papp at 4 h is strictly below 30 ×10⁻⁶ cm/s. Records at or above 30 ×10⁻⁶ cm/s are given no.

[
  {
    "structure notation": "CO[C@@H]1[C@@H](n2cc(-c3ccc(Cl)c(F)c3F)nn2)[C@@H](O)[C@@H](CO)O[C@H]1c1nc(C)nn1-c1ccc2ncsc2c1",
    "class assignment": "no"
  },
  {
    "structure notation": "CO[C@@H]1[C@@H](n2cc(-c3ccc(Br)c(F)c3F)nn2)[C@@H](O)[C@@H](CO)O[C@H]1C(=O)N(C)c1ccc2ncsc2c1",
    "class assignment": "yes"
  },
  {
    "structure notation": "Cc1nc([C@@H]2O[C@H](CO)[C@H](O)[C@H](n3cc(-c4cc(F)c(Br)c(F)c4)nn3)[C@H]2O)n(-c2ccc3ncsc3c2)n1",
    "class assignment": "yes"
  },
  {
    "structure notation": "Cc1nc2ccc(N(C)C(=O)[C@@H]3O[C@H](CO)[C@H](O)[C@H](n4cc(-c5cc(F)c(F)c(F)c5)nn4)[C@H]3O)cc2s1",
    "class assignment": "yes"
  },
  {
    "structure notation": "Cc1nc([C@@H]2O[C@H](CO)[C@H](O)[C@H](n3cc(-c4cc(F)c(F)c(F)c4)nn3)[C@H]2O)n(-c2ccc3ncsc3c2)n1",
    "class assignment": "yes"
  },
  {
    "structure notation": "CO[C@@H]1[C@@H](n2cc(-c3cc(F)c(Cl)c(F)c3)nn2)[C@@H](O)[C@@H](CO)O[C@H]1C(=O)N(C)c1ccc2ncsc2c1",
    "class assignment": "yes"
  },
  {
    "structure notation": "CO[C@@H]1[C@@H](n2cc(-c3cc(F)c(Br)c(F)c3)nn2)[C@@H](O)[C@@H](CO)O[C@H]1C(=O)N(C)c1ccc2ncsc2c1",
    "class assignment": "no"
  },
  {
    "structure notation": "Cc1nc([C@@H]2O[C@H](CO)[C@H](O)[C@H](n3cc(-c4cc(F)c5ccccc5c4)nn3)[C@H]2O)n(-c2ccc3ncsc3c2)n1",
    "class assignment": "yes"
  }
]
